Would you kindly list IC50 for each of these molecules?
Tested on: HMLER CD24+ cells
Measurement protocol: Cell viability assay (CellTiter-Blue), IC50 assessment
Format: cell-based
Details: Homo sapiens; HMLER CD24+ cells, cell viability; read-out: IC50 CD24+
Report as a plain number; the unit µM is understood.

Q: Which IC50 is reported for this molecule? C#CCN[C@@H]1C=C[C@]2(O[C@H]([C@@H](CC)C(=O)[C@@H](C)[C@@H](O)[C@H](C)C3O[C@@H](C(CC)C(=O)OCC#C)CC[C@@H]3C)[C@@H](C)C[C@H]2C)O[C@@]12CC[C@@](C)([C@H]1CC[C@](O)(CC)[C@H](C)O1)O2 (some centres unmarked)
Ans: 19.7

Q: Which IC50 is reported for this molecule? CCCN[C@@H]1C=C[C@]2(O[C@H]([C@@H](CC)C(=O)[C@@H](C)[C@@H](O)[C@H](C)C3O[C@@H](C(CC)C(=O)O)CC[C@@H]3C)[C@@H](C)C[C@H]2C)O[C@@]12CC[C@@](C)([C@H]1CC[C@](O)(CC)[C@H](C)O1)O2 (some centres unmarked)
Ans: 6.5

Q: Which IC50 is reported for this molecule? C#CCN[C@@H]1C=C[C@]2(O[C@H]([C@@H](CC)C(=O)[C@@H](C)[C@@H](O)[C@H](C)C3O[C@@H](C(CC)C(=O)OC)CC[C@@H]3C)[C@@H](C)C[C@H]2C)O[C@@]12CC[C@@](C)([C@H]1CC[C@](O)(CC)[C@H](C)O1)O2 (some centres unmarked)
Ans: 22

Q: Which IC50 is reported for this molecule? CCCCCCCCCCCCN[C@@H]1C=C[C@]2(O[C@H]([C@@H](CC)C(=O)[C@@H](C)[C@@H](O)[C@H](C)C3O[C@@H](C(CC)C(=O)O)CC[C@@H]3C)[C@@H](C)C[C@H]2C)O[C@@]12CC[C@@](C)([C@H]1CC[C@](O)(CC)[C@H](C)O1)O2 (some centres unmarked)
Ans: 3.19

Q: Which IC50 is reported for this molecule? CCC(C(=O)O)[C@H]1CC[C@H](C)C([C@@H](C)[C@H](O)[C@H](C)C(=O)[C@H](CC)[C@H]2O[C@]3(CC[C@@H](NCC(C)C)[C@]4(CC[C@@](C)([C@H]5CC[C@](O)(CC)[C@H](C)O5)O4)O3)[C@H](C)C[C@@H]2C)O1 (some centres unmarked)
Ans: 10.1

Q: Which IC50 is reported for this molecule? CCC(C(=O)NO)[C@H]1CC[C@H](C)C([C@@H](C)[C@H](O)[C@H](C)C(=O)[C@H](CC)[C@H]2O[C@]3(C=C/C(=N\O)[C@]4(CC[C@@](C)([C@H]5CC[C@](O)(CC)[C@H](C)O5)O4)O3)[C@H](C)C[C@@H]2C)O1 (some centres unmarked)
Ans: 2.5

Q: Which IC50 is reported for this molecule? C#CCCCN[C@@H]1C=C[C@]2(O[C@H]([C@@H](CC)C(=O)[C@@H](C)[C@@H](O)[C@H](C)C3O[C@@H](C(CC)C(=O)O)CC[C@@H]3C)[C@@H](C)C[C@H]2C)O[C@@]12CC[C@@](C)([C@H]1CC[C@](O)(CC)[C@H](C)O1)O2 (some centres unmarked)
Ans: 1.17

Q: Which IC50 is reported for this molecule? CCC(C(=O)O)[C@H]1CC[C@H](C)C([C@@H](C)[C@H](O)[C@H](C)C(=O)[C@H](CC)[C@H]2O[C@]3(C=C[C@@H](NOCc4ccccc4)[C@]4(CC[C@@](C)([C@H]5CC[C@](O)(CC)[C@H](C)O5)O4)O3)[C@H](C)C[C@@H]2C)O1 (some centres unmarked)
Ans: 8.06

Q: Which IC50 is reported for this molecule? C#CCN[C@H]1C=C[C@]2(O[C@H]([C@@H](CC)C(=O)[C@@H](C)[C@@H](O)[C@H](C)C3O[C@@H](C(CC)C(=O)O)CC[C@@H]3C)[C@@H](C)C[C@H]2C)O[C@@]12CC[C@@](C)([C@H]1CC[C@](O)(CC)[C@H](C)O1)O2 (some centres unmarked)
Ans: 2

Q: Which IC50 is reported for this molecule? CCC(C(=O)O)[C@H]1CC[C@H](C)C([C@@H](C)[C@H](O)[C@H](C)C(=O)[C@H](CC)[C@H]2O[C@]3(C=C[C@@H](NC4CCC4)[C@]4(CC[C@@](C)([C@H]5CC[C@](O)(CC)[C@H](C)O5)O4)O3)[C@H](C)C[C@@H]2C)O1 (some centres unmarked)
Ans: 1.4

Q: Which IC50 is reported for this molecule? CCC(C(=O)OC)[C@H]1CC[C@H](C)C([C@@H](C)[C@H](O)[C@H](C)C(=O)[C@H](CC)[C@H]2O[C@]3(C=C[C@@H](OC(C)=O)[C@]4(CC[C@@](C)([C@H]5CC[C@](O)(CC)[C@H](C)O5)O4)O3)[C@H](C)C[C@@H]2C)O1 (some centres unmarked)
Ans: 12.5

Q: Which IC50 is reported for this molecule? CCC(C(=O)O)[C@H]1CC[C@H](C)C([C@@H](C)[C@H](O)[C@H](C)C(=O)[C@H](CC)[C@H]2O[C@]3(C=C[C@@H](NCc4ccccc4)[C@]4(CC[C@@](C)([C@H]5CC[C@](O)(CC)[C@H](C)O5)O4)O3)[C@H](C)C[C@@H]2C)O1 (some centres unmarked)
Ans: 6.7

Q: Which IC50 is reported for this molecule? CCC(C(=O)NO)[C@H]1CC[C@H](C)C([C@@H](C)[C@H](O)[C@H](C)C(=O)[C@H](CC)[C@H]2O[C@]3(C=C[C@@H](NC4CC4)[C@]4(CC[C@@](C)([C@H]5CC[C@](O)(CC)[C@H](C)O5)O4)O3)[C@H](C)C[C@@H]2C)O1 (some centres unmarked)
Ans: 5.83

Q: Which IC50 is reported for this molecule? CCC(C(=O)O)[C@H]1CC[C@H](C)C([C@@H](C)[C@H](O)[C@H](C)C(=O)[C@H](CC)[C@H]2O[C@]3(C=C[C@@H](NC4CCCC4)[C@]4(CC[C@@](C)([C@H]5CC[C@](O)(CC)[C@H](C)O5)O4)O3)[C@H](C)C[C@@H]2C)O1 (some centres unmarked)
Ans: 1.36

Q: Which IC50 is reported for this molecule? C#CCN[C@@H]1C=C[C@]2(O[C@H]([C@@H](CC)C(=O)[C@@H](C)[C@@H](O)[C@H](C)C3O[C@@H](C(CC)C(=O)O)CC[C@@H]3C)[C@@H](C)C[C@H]2C)O[C@@]12CC[C@@](C)([C@H]1CC[C@](O)(CC)[C@H](C)O1)O2 (some centres unmarked)
Ans: 3.51

Q: Which IC50 is reported for this molecule? C=CCN[C@@H]1C=C[C@]2(O[C@H]([C@@H](CC)C(=O)[C@@H](C)[C@@H](O)[C@H](C)C3O[C@@H](C(CC)C(=O)O)CC[C@@H]3C)[C@@H](C)C[C@H]2C)O[C@@]12CC[C@@](C)([C@H]1CC[C@](O)(CC)[C@H](C)O1)O2 (some centres unmarked)
Ans: 1.53

Q: Which IC50 is reported for this molecule? CCCCCCN[C@@H]1C=C[C@]2(O[C@H]([C@@H](CC)C(=O)[C@@H](C)[C@@H](O)[C@H](C)C3O[C@@H](C(CC)C(=O)O)CC[C@@H]3C)[C@@H](C)C[C@H]2C)O[C@@]12CC[C@@](C)([C@H]1CC[C@](O)(CC)[C@H](C)O1)O2 (some centres unmarked)
Ans: 6.92
